test system: carbapenemase producing K. pneumoniae; assay: MIC by broth micro-dilution (CLSI), carbapenemase producing K. pneumoniae; assay type: cell-based, Klebsiella pneumoniae; conditions: Klebsiella pneumoniae, ATCCBAA1705, KPC-2 K. pneumoniae ATCC BAA-1705; read-out: MIC
parameter-measured: MIC (µg/mL)
Your answer is read as µg/mL, so omit the unit and give the number.

These recorded examples may help you get a feel for the data.
C[C@@H](NC(=O)C(F)F)[C@H]1C(=O)N2C(C(=O)O)=C(S[C@@H]3CN[C@H](C(=O)N4CC[N+](C)(CC(N)=O)CC4)C3)[C@H](C)[C@H]12
8
C[C@@H](NC(=O)Cn1cnnn1)[C@H]1C(=O)N2C(C(=O)O)=C(S[C@@H]3CN[C@H](C(=O)N4CC5CCNCC5C4)C3)[C@H](C)[C@H]12 (single isomer, unassigned)
1
C[C@@H](NC(=O)C(F)F)[C@H]1C(=O)N2C(C(=O)O)=C(S[C@@H]3CN[C@H](C(=O)N4CC[C@H](NS(=O)(=O)N(C)C)C4)C3)[C@H](C)[C@H]12
4
C[C@@H](NC(=O)Cn1nnnc1N(C)C)[C@H]1C(=O)N2C(C(=O)O)=C(S[C@@H]3CN[C@H](C(=O)N4CC[C@@H](N)C4)C3)[C@H](C)[C@H]12
4

Lab note: next compound to report on.
MIC recorded for this compound, `C[C@@H](NC(=O)Cn1cnnn1)[C@H]1C(=O)N2C(C(=O)O)=C(S[C@@H]3CN[C@H](C(=O)N4C[C@@H](N)[C@@H](O)C4)C3)[C@H](C)[C@H]12` , is 1
